Target: Muscarinic acetylcholine receptor M2 (Sus scrofa, UniProt P06199)
Sequence (P06199 whole entry): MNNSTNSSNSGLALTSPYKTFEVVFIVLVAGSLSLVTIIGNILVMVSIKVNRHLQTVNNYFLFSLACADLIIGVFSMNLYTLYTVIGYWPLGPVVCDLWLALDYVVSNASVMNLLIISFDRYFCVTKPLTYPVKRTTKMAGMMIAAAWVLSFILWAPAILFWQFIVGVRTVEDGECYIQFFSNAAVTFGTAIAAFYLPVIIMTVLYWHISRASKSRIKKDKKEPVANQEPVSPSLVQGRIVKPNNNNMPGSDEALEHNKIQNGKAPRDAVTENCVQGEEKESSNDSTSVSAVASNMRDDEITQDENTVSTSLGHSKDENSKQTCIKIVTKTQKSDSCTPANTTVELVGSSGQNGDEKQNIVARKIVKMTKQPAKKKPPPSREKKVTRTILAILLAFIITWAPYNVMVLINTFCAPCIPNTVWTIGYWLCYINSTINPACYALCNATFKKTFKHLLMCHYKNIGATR
Test: Allosteric inhibition of [3H]NMS (N-methyl-scopolamine) dissociation from porcine cardiac Muscarinic acetylcholine receptor M2
log10 of EC50 values for the compounds below.
Note the log scale: values are log10 of EC50 expressed in nM.

Worked cases, log10 of EC50 given:
COMPOUND: O=[N+]([O-])c1ccc(C[N+]23CCC45c6ccccc6N6[C@@H]7OCC=C8C[N+]9(Cc%10ccc([N+](=O)[O-])cc%10)CCC%10%11c%12ccccc%12N([C@@H]%12OCC=C(C2)[C@H](C[C@@H]43)[C@@H]%12[C@H]65)[C@H]%10[C@H]7[C@H]8C[C@@H]%119)cc1 (stereo partly drawn)
log10 of EC50: 2.50
--
COMPOUND: C[N+]12CCC34c5ccccc5N5[C@@H]6OCC=C7C[N+]8(C)CCC9%10c%11ccccc%11N([C@@H]%11OCC=C(C1)[C@H](C[C@@H]32)[C@@H]%11[C@H]54)[C@H]9[C@H]6[C@H]7C[C@@H]%108 (stereo partly drawn)
log10 of EC50: 0.90
--
COMPOUND: COc1ccc(C[N+]23CCC45c6ccccc6N6[C@@H]7OCC=C8C[N+]9(Cc%10ccc(OC)c(OC)c%10)CCC%10%11c%12ccccc%12N([C@@H]%12OCC=C(C2)[C@H](C[C@@H]43)[C@@H]%12[C@H]65)[C@H]%10[C@H]7[C@H]8C[C@@H]%119)cc1OC (stereo partly drawn)
log10 of EC50: 2.53
--
COMPOUND: C#CC[N+]12CCC34c5ccccc5N5[C@@H]6OCC=C7C[N+]8(CC#C)CCC9%10c%11ccccc%11N([C@@H]%11OCC=C(C1)[C@H](C[C@@H]32)[C@@H]%11[C@H]54)[C@H]9[C@H]6[C@H]7C[C@@H]%108 (stereo partly drawn)
log10 of EC50: 0.60
--
COMPOUND: C1=C2C[N@+]3(Cc4ccccc4)CC[C@]45c6ccccc6N6[C@@H]7OCC=C8C[N@+]9(Cc%10ccccc%10)CC[C@]%10%11c%12ccccc%12N([C@H](OC1)[C@@H]([C@H]64)[C@H]2C[C@@H]53)[C@H]%10[C@H]7[C@H]8C[C@@H]%119
log10 of EC50: 1.84
--
COMPOUND: CCC[N+]12CCC34c5ccccc5N5[C@@H]6OCC=C7C[N+]8(CCC)CCC9%10c%11ccccc%11N([C@@H]%11OCC=C(C1)[C@H](C[C@@H]32)[C@@H]%11[C@H]54)[C@H]9[C@H]6[C@H]7C[C@@H]%108 (stereo partly drawn)
log10 of EC50: 1.48

If you can, please state the reported log10 of EC50 value of C1=C2C[N+]3(Cc4ccc5ccccc5c4)CCC45c6ccccc6N6[C@@H]7OCC=C8C[N+]9(Cc%10ccc%11ccccc%11c%10)CCC%10%11c%12ccccc%12N([C@H](OC1)[C@@H]([C@H]64)[C@H]2C[C@@H]53)[C@H]%10[C@H]7[C@H]8C[C@@H]%119 (stereo partly drawn) .
3.19

Now the compound C1=C2CN3CCC45c6ccccc6N6[C@@H]7OCC=C8CN9CCC%10%11c%12ccccc%12N([C@H](OC1)[C@@H]([C@H]64)[C@H]2C[C@H]35)[C@H]%10[C@H]7[C@H]8C[C@H]9%11 (stereo partly drawn)
3.08
